What pest or weed control at 2000 g/ha was measured for each of the following?
# Test system: soybean cyst nematode (SCN)
# experiment notes: SCN greenhouse sand assay on soybean plants
# Format: in vivo
# experimental parameters: Glycine max, 672 h; 2 kg/ha; test a; read-out: percent control (cyst number reduction) relative to the control blank treatment
Kindly answer with a numeric value in %, unit omitted.

pest or weed control at 2000 g/ha for Clc1ccc(-c2nnc(-c3cccs3)o2)cc1 ?
98

pest or weed control at 2000 g/ha for FC(F)(F)c1cccc(-c2noc(-c3ccco3)n2)c1 ?
100

pest or weed control at 2000 g/ha for c1ccc(-c2noc(-c3cccs3)n2)cc1 ?
100

pest or weed control at 2000 g/ha for c1cncc(-c2noc(-c3ccco3)n2)c1 ?
92

pest or weed control at 2000 g/ha for Brc1ccc(-c2cnc(-c3cccs3)o2)cc1 ?
99

Cited source: patent US20170367338A1
